The reported numbers originate from BindingDB's records for doi:10.1021/jm050654o.

- procedureSummary: Antiproliferative activity mediated by sigma 1 receptor in rat C6 glioma cells by MTT assay
Kindly supply the reported pEC50 values for the records listed here.
One number for each entry, as −log10 of the molar value.

molecularString	readoutNumber
COc1ccc2c(CCCCN3CCC(C)CC3)cccc2c1	4.59
COc1ccc2c(CCCN3CCCC(C)(C)C3)cccc2c1	4.40
COc1ccc2c(CCCCN3CCCCC3)cccc2c1	4.71

Look up pEC50 for the entries below, preserving their order.
1. COc1ccc2c(CCCCN3CCCC(C)(C)C3)cccc2c1
2. CCCN(CCC)CCc1ccc(OC)c(OCCc2ccccc2)c1

**Result**
4.82
4.97
